Measured values drawn from patent US6815451B2 for this set.

Biological target: urotensin II receptor on TE-671 rhabdomyosarcoma cells (Homo sapiens, UniProt Q9UKP6)
Sequence (Q9UKP6 whole entry): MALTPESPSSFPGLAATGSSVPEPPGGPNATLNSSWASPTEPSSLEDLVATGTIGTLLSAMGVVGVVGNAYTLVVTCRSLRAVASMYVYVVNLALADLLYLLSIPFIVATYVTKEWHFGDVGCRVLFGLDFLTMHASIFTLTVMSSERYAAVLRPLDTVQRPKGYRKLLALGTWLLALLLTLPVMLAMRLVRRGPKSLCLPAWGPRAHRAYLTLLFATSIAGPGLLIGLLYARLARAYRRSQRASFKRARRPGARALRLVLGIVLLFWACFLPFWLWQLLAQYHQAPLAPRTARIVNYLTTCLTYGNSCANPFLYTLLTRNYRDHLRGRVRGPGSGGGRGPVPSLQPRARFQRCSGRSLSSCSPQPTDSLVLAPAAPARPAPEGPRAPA
Experiment: Inhibition of human [125I]-urotensin II binding to a rhabdomyosarcoma cell line (whole cell binding)
Details: TE-671 whole cells, 20 pM human [125I]urotensin II, 4 h at 20° C.
pIC50: −log10 of the molar value.
readout.name: pIC50

Example results:
COc1cc2c(cc1OC)C(CCc1ccccc1)N(CCNC(=O)Nc1cc(C)nc3ccccc13)CC2 (stereo not shown); 6.90
COc1cc2c(cc1OC)C(CCc1cc(F)ccc1F)N(CCNC(=O)Nc1cc(C)nc3ccccc13)CC2 (stereo not shown); 7.17

[P] COc1ccc(CCC2c3cc(OC)c(OC)cc3CCN2CCNC(=O)Nc2cc(C)nc3ccccc23)cc1OC (stereo not shown)
[Q] COc1cc2c(c(OC)c1)C(Cc1ccc(OC)c(OC)c1)N(CCNC(=O)Nc1cc(C)nc3ccccc13)CC2 (stereo not shown)
Challenge: For the pair P and Q , which member has the lower pIC50 number? # respond with the chosen item's label
Response given: Q
(Q: 6.26, P: 7.20)
